Catalogue of binders with associated fold change of affinity
target.or.test.system: T1, Human CD137 ECD (human)
T1 construct: entry includes C-terminal His-tag and biotin acceptor peptide; also called human CD137 extracellular domain; 4-1BB
T1 sequence (chain, as listed by the source limits assumed): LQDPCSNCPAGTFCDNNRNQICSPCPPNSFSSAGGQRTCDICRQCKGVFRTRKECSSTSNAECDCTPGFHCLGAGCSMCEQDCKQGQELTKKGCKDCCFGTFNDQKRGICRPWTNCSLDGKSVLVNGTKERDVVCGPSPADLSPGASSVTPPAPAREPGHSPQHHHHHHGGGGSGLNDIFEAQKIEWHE
protocol.summary: Biacore SPR, vs parent H183/L072
Write the number in fold without appending the unit.

// solved cases for fold change of affinity follow
H183/L072 VL H27dV (antibody, name in Kabat numbering, V domains shown, Dual-Ig) VH: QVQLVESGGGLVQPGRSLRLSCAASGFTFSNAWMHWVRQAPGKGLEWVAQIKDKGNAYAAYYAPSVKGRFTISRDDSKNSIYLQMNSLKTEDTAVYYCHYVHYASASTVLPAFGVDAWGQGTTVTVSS VL: DIVMTQSPLSLPVTPGEPASISCQASQELVVMNRNTYLHWYQQKPGQAPRLLIYKVSNRFPGVPDRFSGSGSGTDFTLKISRVEAEDVGVYYCAQGTSVPFTFGQGTKLEIK = 0.7
H183/L072 VL K50I (antibody, name in Kabat numbering, V domains shown, Dual-Ig) VH: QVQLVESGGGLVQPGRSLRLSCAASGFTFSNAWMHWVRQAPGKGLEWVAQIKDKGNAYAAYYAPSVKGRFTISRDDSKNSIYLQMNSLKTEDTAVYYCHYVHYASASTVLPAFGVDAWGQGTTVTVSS VL: DIVMTQSPLSLPVTPGEPASISCQASQELVHMNRNTYLHWYQQKPGQAPRLLIYIVSNRFPGVPDRFSGSGSGTDFTLKISRVEAEDVGVYYCAQGTSVPFTFGQGTKLEIK = 2.5
H183/L072 VL K50V (antibody, name in Kabat numbering, V domains shown, Dual-Ig) VH: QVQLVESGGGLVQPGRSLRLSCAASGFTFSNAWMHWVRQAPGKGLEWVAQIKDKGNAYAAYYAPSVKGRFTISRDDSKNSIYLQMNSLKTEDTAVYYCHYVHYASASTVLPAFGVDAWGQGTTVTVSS VL: DIVMTQSPLSLPVTPGEPASISCQASQELVHMNRNTYLHWYQQKPGQAPRLLIYVVSNRFPGVPDRFSGSGSGTDFTLKISRVEAEDVGVYYCAQGTSVPFTFGQGTKLEIK = 0.3
H183/L072 VL M27eP (antibody, name in Kabat numbering, V domains shown, Dual-Ig) VH: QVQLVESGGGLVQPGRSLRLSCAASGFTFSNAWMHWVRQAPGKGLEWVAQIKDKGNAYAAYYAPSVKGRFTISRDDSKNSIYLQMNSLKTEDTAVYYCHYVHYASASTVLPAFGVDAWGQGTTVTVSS VL: DIVMTQSPLSLPVTPGEPASISCQASQELVHPNRNTYLHWYQQKPGQAPRLLIYKVSNRFPGVPDRFSGSGSGTDFTLKISRVEAEDVGVYYCAQGTSVPFTFGQGTKLEIK = 1
H183/L072 VL A89T (antibody, name in Kabat numbering, V domains shown, Dual-Ig) VH: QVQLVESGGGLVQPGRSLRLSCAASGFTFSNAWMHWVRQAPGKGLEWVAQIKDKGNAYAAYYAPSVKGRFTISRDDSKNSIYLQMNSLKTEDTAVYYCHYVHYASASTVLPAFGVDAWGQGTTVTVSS VL: DIVMTQSPLSLPVTPGEPASISCQASQELVHMNRNTYLHWYQQKPGQAPRLLIYKVSNRFPGVPDRFSGSGSGTDFTLKISRVEAEDVGVYYCTQGTSVPFTFGQGTKLEIK = 0

Request: What value of fold change of affinity has been recorded for this entry: H183/L072 VL N30R (antibody, name in Kabat numbering, V domains shown, Dual-Ig) VH: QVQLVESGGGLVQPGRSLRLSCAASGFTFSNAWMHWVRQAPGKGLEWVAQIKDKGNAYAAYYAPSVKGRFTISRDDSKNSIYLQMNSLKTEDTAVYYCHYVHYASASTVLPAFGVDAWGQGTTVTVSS VL: DIVMTQSPLSLPVTPGEPASISCQASQELVHMNRRTYLHWYQQKPGQAPRLLIYKVSNRFPGVPDRFSGSGSGTDFTLKISRVEAEDVGVYYCAQGTSVPFTFGQGTKLEIK
Response: 0.5

Request: Return reported fold change of affinity; argument: H183/L072 VL V27cP (antibody, name in Kabat numbering, V domains shown, Dual-Ig) VH: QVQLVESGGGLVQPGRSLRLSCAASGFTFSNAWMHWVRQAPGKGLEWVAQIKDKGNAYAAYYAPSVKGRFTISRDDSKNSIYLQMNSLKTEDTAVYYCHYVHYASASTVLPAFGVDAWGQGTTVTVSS VL: DIVMTQSPLSLPVTPGEPASISCQASQELPHMNRNTYLHWYQQKPGQAPRLLIYKVSNRFPGVPDRFSGSGSGTDFTLKISRVEAEDVGVYYCAQGTSVPFTFGQGTKLEIK
Response: 0.5
